test: Displacement of [3H]epibatidine from nAChR in rat cerebral cortex; type: tissue-based
Entries and their measured Ki follow.

| compound | Ki |
| --- | --- |
| CN1CCC[C@H]1COc1cncc(C#CCO)c1 | 0.0031 µM |
| COCCOCCOCCOCCOC(=O)NCC[N+](C)(C)C | 150 µM |
| COCC#Cc1cncc(OC[C@@H]2CCCN2C)c1 | 0.0047 µM |
| COCCOCCOCCOCCOCCOCC#Cc1cncc(OC[C@@H]2CCCN2C)c1 | 0.04 µM |
| COCCOCCOCCOCCOCCOCCOC(=O)NCC[N+](C)(C)C | 30 µM |
| COC(=O)N1CC[N+](C)(C)CC1 | 0.67 µM |
| COCCOCCOCCOCCOC(=O)N1CC[N+](C)(C)CC1 | 26 µM |
| COCCOCCOCC#Cc1cncc(OC[C@@H]2CCCN2C)c1 | 0.0075 µM |
| CC(=O)N1CC[N+](C)(C)CC1 [ACETYLDIMETHYLPIPERAZINIUM IODIDE] | 3.6 µM |
| COCCOCCOC(=O)N1CC[N+](C)(C)CC1 | 8.2 µM |
| COCCOCCOC(=O)NCC[N+](C)(C)C | 32 µM |

Sourced from ChEMBL document CHEMBL1782030
